# Target: Sm (Smith antigen)
# Assay protocol: AtheNA, Ab 6.25 ug/ml
Give Athena reading (relative luminescence units) for every item shown.
Give only the figure.

The binder listed as CH235_4A (antibody, from a related filing, V domains shown) VH: QVQLVQSGAEVKKPGASVTVSCQASGYTFTNYYVHWVRQAPGQGLQLMGWIDPSWGRTNYAQNFQGRITMTRDTSTSTVYMEMRSLRSEDTAVYYCARNVATEGSLLHYDYWGQGTLVTVSA VL: EIVLTQSPATLSVSPGERATLSCRASQSVRSNLAWYQQRPGQAPRLLIYGTSTRATGVPARFSGRGSGTEFTLAISSMQSEDFAVYLCLQYNNWWTFGQGTKVEIK shows Athena reading (relative luminescence units) equal to 5

Entry CH236_4A/293i (antibody, from a related filing, V domains shown) VH: QVQLVQSGAAVKRPGASVTISCRASGYTFTTYYIHWVRQAPGQRLELMGMIDPSRGRTDYAQKFQGRVTMSRDTSTSTLYMELRSLRPDDTALYYCVRNVGTEGSLLHYDYWGQGTLVTVSS VL: EIVLTQSPATLSVSPGERVTLSCRASQSVRNNLAWYRQKRGQAPRLLIYGASTRATGIPARFSGSGSGTEFTLTISSMQSEDFAVYYCQQYNNWWTFGQGTKVEIK ; Athena reading (relative luminescence units) = 184
